B1: glmS ribozyme (parent)
chain: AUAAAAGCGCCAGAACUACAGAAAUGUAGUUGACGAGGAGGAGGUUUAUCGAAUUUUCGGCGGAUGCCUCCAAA

Variants of: B1
protocolNotes: self-cleavage kobs at 10000 uM GlcN6P; higher = faster cleavage; RNA array
conditionsUsed: with glucosamine-6-phosphate
This sample holds only a part of the variants without activity.
propertyName: self-cleavage kobs at 10000 uM GlcN6P (s⁻¹)
One number for each entry, in s⁻¹.

Guide cases for self-cleavage kobs at 10000 uM GlcN6P, answers given:
INSERT INTO results (inputsequence, unitlabel, measvalue) VALUES
  ('AUAAAAGCGCCAUAACUACAGAAAUGUAGUUAACGAGGAGGAGGUUUAUCGAAUUUUCGGCGGAUGCCUCCAAA [G13U G32A]', 's⁻¹', 0.00258),
  ('AUAAAAGCGCCAGAACUACAGAAAUGUAGUUGACGAGGAGGAGGUGUAUCGAAUUUUCGGCGGAAGCCUUCAAA [U46G U65A C70U]', 's⁻¹', 0.00117),
  ('AUAAAAGCGCCAGAAUUACAGAAAUGUAGUUGACGAGGAGGAGGUUUAUCGAAUUUUCGGCGGGUGCCUCCAAA [C16U A64G]', 's⁻¹', 0.0176),
  ('AUAAAAGCGCCACCACUACAGAAAUGUAGUUGACGAGGAGGAGGAUUAUCGAAUUUUCGGCGGAUGCCUCCAAA [G13C A14C U45A]', 's⁻¹', 0.000262),
  ('AUAAAAUCGCCAGAACUACAGAAAUGUACUUGACGAGGAGGAGGUUUGUGGAAUUUUCGGCGGAUGCCUCAAAA [G7U G29C A48G C50G C71A]', 's⁻¹', 0.00097);

Dear reader, for each entry below, please note its self-cleavage kobs at 10000 uM GlcN6P.
1. AUAAAAGCGCCAGUACUACAGAAAUGUAGUUGACGAGGACGAGGUUUAUCGAAUUUUCGGCGGAUCCCUCCAAA [A14U G40C G66C]
2. AUAAAAGCGCCAGCACUACAGAAAUGUAGUUGACGAGGAGGAGGUUUAUCGAAUUUUCGGCGGAUGCUUCCAAA [A14C C68U]
3. AUAAAAGCGCCAGAACUACAGAAAUGUAGUUAACGAGGAGGAGGUUUAUCGAAUUUUCGGCGGAGGCCUCCAAA [G32A U65G]
4. AUAAAAGGGCCAGAACUACAGAAAUGUAGUUGACGAGGAGGAGGUUUAUGGAAUUUUCGGCGGAUGCCUCCAAA [C8G C50G]
5. AUAAAAGCGCCAGAACUACAGAAAUGUAGUUGACGAGGAGGAGGUGUAUCGAAUUUACGGCGGAUGCCUCCAAA [U46G U57A]

Marked response:
1: 0.00012; 2: 0.000447; 3: 0.000374; 4: 0.000242; 5: 5.59e-05
